- PROCEDURE DETAILS: Solubility testing of peptides at different pH
- Type: physicochemical
- TEST CONDITIONS: 50 mM phosphate buffer pH 7.4; target concentration 1 mg/ml; 2 hours agitation; read-out: Solubility Buffer pH 7.4
Starred links: 1 amine or outer side, 2 acyl side, 3 side chain; linkers in the order of their positions; H or OH if unused. Positions of bridges follow the written chain, without caps; N, C: chain ends. Non-standard residues stand in square brackets, D forms with d. Residues, ends and D or L forms follow the SMILES beside them. *: point of attachment. αMeLys(Me2) = CN(C)CCCC[C@](C)(N)C(=O)O; X2 = CN(C)[C@@H](CCCCN[*:1])C(=O)[*:2]; 2Nal = N[C@@H](Cc1ccc2ccccc2c1)C(=O)O; 3Pal = N[C@@H](Cc1cccnc1)C(=O)O; Me2NCH2CH2 = CN(C)CC*; Aib = CC(C)(N)C(=O)O; Ahx = NCCCCCC(=O)O; Ava = NCCCCC(=O)O; Sar = CNCC(=O)O
Each record here notes measured solubility at 2 h.

CC(=O)NCCCC[C@@H]1NC(=O)[C@H](Cc2c[nH]c3ccccc23)NC(=O)[C@@H](N(C)C)CCCCNC(=O)[C@@H]2CSSC[C@H](NC1=O)C(=O)N[C@@H](Cc1ccc(OCCN(C)C)cc1)C(=O)N[C@@H](Cc1ccc3ccccc3c1)C(=O)N[C@@](C)(CCCCN(C)C)C(=O)N[C@H](C(=O)N[C@@H](CC(N)=O)C(=O)N[C@@H](Cc1cccnc1)C(=O)N(C)CC(N)=O)CCC(=O)NCCCCC(=O)N2 [compound 36] ([Ava]C[X2]WK(Ac)CY(Me2NCH2CH2)[2Nal][αMeLys(Me2)]EN[3Pal][Sar]-NH2; disulfide 2-6; lactam N-10)	≥ 1.08 mg/mL

We now examine a further molecule.
Ask | Consider the molecule shown here: COc1ccc(C[C@@H]2NC(=O)[C@@H]3CSSC[C@H](NC(=O)CCCCCNC(=O)CC[C@@H](C(=O)N[C@@H](CC(N)=O)C(=O)N[C@@H](CC(N)=O)C(N)=O)NC(=O)C(C)(C)NC(=O)[C@H](Cc4ccc5ccccc5c4)NC2=O)C(=O)N[C@@H](CC(N)=O)C(=O)N[C@@H]([C@@H](C)O)C(=O)N[C@@H](Cc2c[nH]c4ccccc24)C(=O)N[C@@H](CCC(N)=O)C(=O)N3)cc1 [compound 2] ([Ahx]CNTWQCY(Me)[2Nal][Aib]ENN-NH2; disulfide 2-7; lactam N-11) What is its recorded solubility at 2 h?
Reply | < 0.05 mg/mL

* * *

- Tested on: Pepsin
- Construct: purchased Merck Millipore
- PROCEDURE DETAILS: Protease stability in simulated gastric fluid (Pepsin-SGF, FaSSGF)
- Format: in vitro ADME
- TEST CONDITIONS: simulated gastric fluid with pepsin (Pepsin-SGF), 60 min, 1 μM peptide, 37° C., read-out: FaSSGF 60 (min), remaining percent of peptide
Starred links: 1 amine or outer side, 2 acyl side, 3 side chain; linkers in the order of their positions; H or OH if unused. Positions of bridges follow the written chain, without caps; N, C: chain ends. Non-standard residues stand in square brackets, D forms with d. Residues, ends and D or L forms follow the SMILES beside them. *: point of attachment. X5 = CN(C(=O)CCC(=O)[*:3])[C@@H](CS[*:2])C(=O)[*:1]; X3 = CN(CCCCC(=O)N[C@@H](CS[*:2])C(=O)[*:1])[*:3]; Trp(7-Me) = Cc1cccc2c(C[C@H](N)C(=O)O)c[nH]c12; αMeLys(Me2) = CN(C)CCCC[C@](C)(N)C(=O)O; X2 = CN(C)[C@@H](CCCCN[*:1])C(=O)[*:2]; 2Nal = N[C@@H](Cc1ccc2ccccc2c1)C(=O)O; AEF = NCCOc1ccc(C[C@H](N)C(=O)O)cc1; 3Pal = N[C@@H](Cc1cccnc1)C(=O)O; Lys(Me) = CNCCCC[C@H](N)C(=O)O; αMeL = CC(C)C[C@](C)(N)C(=O)O; Suc = O=C(CCC(=O)[*:2])[*:1]; Me2NCH2CH2 = CN(C)CC*; Aib = CC(C)(N)C(=O)O; Ava = NCCCCC(=O)O; Sar = CNCC(=O)O
Each record here notes measured remaining at 1 h, 1 µM.
Kindly answer with a numeric value in %, unit omitted.

CC(=O)N[C@H]1CCCCNC(=O)[C@@H]2CSSC[C@H](NC(=O)[C@H](CC(C)C)NC(=O)[C@H](Cc3c[nH]c4c(C)cccc34)NC1=O)C(=O)N[C@@H](Cc1ccc(OCCN(C)C)cc1)C(=O)N[C@@H](Cc1ccc3ccccc3c1)C(=O)N[C@@](C)(CC(C)C)C(=O)N[C@H](C(=O)N[C@@H](CC(N)=O)C(=O)N[C@@H](Cc1cccnc1)C(=O)N(C)CC(N)=O)CCCCN(C)C(=O)CCC(=O)N2C [compound 69] (Ac-K[Trp(7-Me)]LCY(Me2NCH2CH2)[2Nal][αMeL][Lys(Me)]N[3Pal][Sar]-NH2; linker 1-4-8 via X5)	79
CC(=O)NCCCC[C@@H]1NC(=O)[C@H](Cc2c[nH]c3ccccc23)NC(=O)[C@@H](N(C)C)CCCCNC(=O)[C@@H]2CSSC[C@H](NC1=O)C(=O)N[C@@H](Cc1ccc(OCCN(C)C)cc1)C(=O)N[C@@H](Cc1ccc3ccccc3c1)C(=O)N[C@@](C)(CCCCN(C)C)C(=O)N[C@H](C(=O)N[C@@H](CC(N)=O)C(=O)N[C@@H](Cc1cccnc1)C(=O)N(C)CC(N)=O)CCC(=O)NCCCCC(=O)N2 [compound 36] ([Ava]C[X2]WK(Ac)CY(Me2NCH2CH2)[2Nal][αMeLys(Me2)]EN[3Pal][Sar]-NH2; disulfide 2-6; lactam N-10)	95
CC(=O)NCCCC[C@@H]1NC(=O)[C@H](Cc2c[nH]c3c(C)cccc23)NC(=O)[C@H]([C@@H](C)O)NC(=O)[C@H](CC(N)=O)NC(=O)[C@@H]2CSSC[C@H](NC1=O)C(=O)N[C@@H](Cc1ccc(OCCN(C)C)cc1)C(=O)N[C@@H](Cc1ccc3ccccc3c1)C(=O)N[C@@](C)(CC(C)C)C(=O)N[C@H](C(=O)N[C@@H](CC(N)=O)C(=O)N[C@@H](Cc1c[nH]cn1)C(N)=O)CCC(=O)NCCCCC(=O)N2 [compound 22] ([Ava]CNT[Trp(7-Me)]K(Ac)CY(Me2NCH2CH2)[2Nal][αMeL]ENH-NH2; disulfide 2-7; lactam N-11)	60
COc1ccc(C[C@@H]2NC(=O)[C@@H]3CSSC[C@H](NC(=O)CCC(=O)NCCCC[C@@H](C(=O)N[C@@H](CC(N)=O)C(=O)N[C@@H](CC(N)=O)C(N)=O)NC(=O)C(C)(C)NC(=O)[C@H](Cc4ccc5ccccc5c4)NC2=O)C(=O)N[C@@H](CC(N)=O)C(=O)N[C@@H]([C@@H](C)O)C(=O)N[C@@H](Cc2c[nH]c4ccccc24)C(=O)N[C@@H](CCC(N)=O)C(=O)N3)cc1	2
CC(=O)NCCCC[C@@H]1NC(=O)[C@H](Cc2c[nH]c3c(C)cccc23)NC(=O)[C@H]([C@@H](C)O)NC(=O)[C@H](CC(N)=O)NC(=O)[C@@H]2CSSC[C@H](NC1=O)C(=O)N[C@@H](Cc1ccc(OCCN(C)C)cc1)C(=O)N[C@@H](Cc1ccc3ccccc3c1)C(=O)N[C@@](C)(CC(C)C)C(=O)N[C@H](C(=O)N[C@@H](CC(N)=O)C(=O)N[C@@H](Cc1c[nH]cn1)C(N)=O)CCCCNC(=O)CCC(=O)N2 [compound 23] (CNT[Trp(7-Me)]K(Ac)CY(Me2NCH2CH2)[2Nal][αMeL]KNH-NH2; disulfide 1-6; linker N-10 via Suc)	69
CC(=O)N[C@H]1CCCCNC(=O)[C@@H]2CSSC[C@H](NC(=O)[C@H](CCC(N)=O)NC(=O)[C@H](Cc3c[nH]c4ccccc34)NC1=O)C(=O)N[C@@H](Cc1ccc(OCCN)cc1)C(=O)N[C@@H](Cc1ccc3ccccc3c1)C(=O)N[C@@](C)(CC(C)C)C(=O)N[C@H](C(=O)N[C@@H](C)C(=O)NCC(N)=O)CCC(=O)N(C)CCCCC(=O)N2 [compound 18] (Ac-KWQC[AEF][2Nal][αMeL]EAG-NH2; linker 1-4-8 via X3)	60
CC(C)C[C@@H](NC(=O)[C@H](CC(N)=O)NC(=O)[C@@H]1CCC(=O)NCCCCC(=O)N[C@H]2CSSC[C@H](NC(=O)[C@H](CCC(N)=O)NC(=O)[C@H](Cc3c[nH]c4ccccc34)NC(=O)[C@H]([C@@H](C)O)NC(=O)[C@H](CC(N)=O)NC2=O)C(=O)N[C@@H](Cc2ccc(OCCN(C)C)cc2)C(=O)N[C@@H](Cc2ccc3ccccc3c2)C(=O)N[C@@](C)(CC(C)C)C(=O)N1)C(N)=O [compound 10] ([Ava]CNTWQCY(Me2NCH2CH2)[2Nal][αMeL]EN[dL]-NH2; disulfide 2-7; lactam N-11)	77

We now examine a further compound.
Ask | Consider the compound shown here: CC[C@H](C)[C@H](NC(=O)[C@H](CC(N)=O)NC(=O)[C@H](CC(N)=O)NC(=O)[C@@H]1CCC(=O)NCCCCC(=O)N[C@H]2CSSC[C@H](NC(=O)[C@H](CCC(N)=O)NC(=O)[C@H](Cc3c[nH]c4ccccc34)NC(=O)[C@H]([C@@H](C)O)NC(=O)[C@H](CC(N)=O)NC2=O)C(=O)N[C@@H](Cc2ccc(OCCN(C)C)cc2)C(=O)N[C@@H](Cc2ccc3ccccc3c2)C(=O)NC(C)(C)C(=O)N1)C(N)=O [compound 57] ([Ava]CNTWQCY(Me2NCH2CH2)[2Nal][Aib]ENNI-NH2; disulfide 2-7; lactam N-11) What is its recorded remaining at 1 h, 1 µM?
Reply | 61
